# melting point listing for each entry below
observationType: melting point

>>> val("CCC(C)c1ccc(-n2c(-c3cc(C)c(OCCO)c(C)c3)nc3ccc(OC)cc3c2=O)cc1 (centres undefined)")
"152 to 154 °C"
>>> val("CCOC(=O)c1c(CN(CC)CC)nc2sc3c(c2c1-c1ccc(Cl)cc1)CCNC3")
"104 to 106 °C"
>>> val("Cc1ccc(C2=NN(C(=O)c3cccnc3)CC2)cc1")
"100 to 102 °C"
>>> val("O=C(O)c1ccc(NCCCc2ccccc2)cc1")
"162 to 163 °C"
>>> val("Cc1cc(C(O)CN(C)Cc2cc3c(=O)c(C(=O)NCc4ccc(Cl)cc4)cn(C)c3o2)oc1C (centres undefined)")
"140 °C"
>>> val("O=[N+]([O-])c1ccc(N=C(NC(=S)NCc2cccnc2)c2ccccc2)cc1")
"179 to 180 °C"
>>> val("CN1CCN(C(=O)[C@H](CCC(N)=O)NC(=O)CCc2ccc(OCc3ccccc3)cc2OCc2ccccc2)CC1")
"120 to 122 °C"
>>> val("COC(=O)C(C)Oc1ccccc1S(N)(=O)=O (centres undefined)")
"140 to 142 °C"
>>> val("CCN(C(C)=O)c1cccc(C(=O)C=CN(C)C)c1")
"110 to 113 °C"
>>> val("Cc1noc(NS(=O)(=O)c2ccccc2-c2cccnc2)c1C")
"147 to 150 °C"
>>> val("CC(=O)N1c2ccccc2Sc2nccnc21")
"174 to 175 °C"
>>> val("COc1ccc(-c2cc(C)cn2-c2ccc(S(=O)(=O)NC(C)=O)cc2)cc1")
"215 to 217 °C"
>>> val("CCCCCCCCCCCOc1cc(C(=O)O)ccc1CO")
"82 to 83 °C"
>>> val("CCCNC(C)=C1C(=O)OC(=O)C(C(=O)C=Cc2cccc(OC)c2OC)=C1O")
"180 to 185 °C"
>>> val("O=S1(=O)N(CCCl)c2cccc3c2N1CCC3")
"70 °C"
>>> val("Cc1cc(Nc2ccnc(Nc3ccc(C(=O)N(C)C4CCCN(CCCC(F)(F)F)C4)cc3)n2)ccc1F (centres undefined)")
"100 to 110 °C"
>>> val("CCOC(=O)C1CCn2c1cc(C)c2C(=O)c1ccc(SC)n1C (centres undefined)")
"101 to 102 °C"
>>> val("COc1cccc2c3c(cnc12)CCCN3c1ccccc1C")
"160 to 161 °C"
>>> val("CCC(=O)Nc1ccc(OCc2nc3ccccc3s2)cc1")
"182 °C"

* * *

# melting point listing for each entry below
observationType: melting point

>>> val("CCN(CC)C(=O)CCCCCN1CCC(NC(=O)c2cnc3c(OC)cccc3c2Nc2ccc(C(=O)NC3CCN(Cc4ccccc4)CC3)cc2)CC1")
"115 to 120 °C"
>>> val("CCc1c(C)c(NC(=O)CC(C)(C)C)c(C)c2c1S(=O)CC2c1ccc(C(C)C)cc1 (stereo not given)")
"195 to 196 °C"
>>> val("CCCc1nc2c(N)nc(C)c(C)c2n1CCCO/N=C(\\C)c1ccccc1")
"125 to 127 °C"
>>> val("CC(C)(CO)NS(=O)(=O)c1cncc(Br)c1")
"112 °C"
>>> val("Cc1nc(-n2cc(CCc3ccccc3)nn2)sc1C(=O)NCc1cccnc1")
"114 to 116 °C"
>>> val("O=S(=O)(c1ccc(CO)cc1)N1CCCC1c1ccc(F)cc1 (racemic)")
"107 °C"
>>> val("O=C(c1ccccc1)c1ccccc1N1C=NC(CCl)(C(=O)O)N1 (stereo not given)")
"90 to 93 °C"
>>> val("CNc1ccc(C#N)c(F)c1")
"110 to 112 °C"
>>> val("Cc1cc(OS(=O)(=O)c2c(F)cccc2F)cc2c(C3CCN(C)CC3)cn(Cc3ccccc3)c12")
"158 °C"
>>> val("O=C(O)c1c(OCc2ccccc2)c2ccccc2n1-c1ccccc1")
"140 to 142 °C"

* * *

# melting point listing for each entry below
observationType: melting point

>>> val("CNCc1noc(-c2cc(C(C)(C)C)c(O)c(C(C)(C)C)c2)n1")
"120 to 122 °C"
>>> val("Cc1ccc(-c2c(C(=O)NCc3cc(C(F)(F)F)cc(C(F)(F)F)c3)n(CCCCO)c(=O)c3cnccc23)cc1")
"128 to 131 °C"
>>> val("CN(NCc1ccccc1)c1cnn(-c2cccc(C(F)(F)F)c2)c(=O)c1")
"89 to 90 °C"
>>> val("O=c1cnc(-c2cccc(Cc3ccccc3)c2)nn1CC(F)(F)F")
"95 to 96 °C"
>>> val("Oc1ccccc1CNNCc1ccccc1O")
"315 to 316 °C"
>>> val("CCCCCS(=O)(=O)NC(=O)/C=C/c1ccc(OCCOC)cc1Oc1ncc(Cl)cc1Cl")
"119 to 120 °C"
>>> val("COc1ccc(Oc2cc3nc(-c4ccc(Cl)cc4Cl)oc3cc2[N+](=O)[O-])cc1")
"144 to 146 °C"
>>> val("COc1cccc(NC(=O)C(C)Oc2ccc(Oc3ccc(C#N)cc3)cc2)c1 (configuration not stated)")
"118 to 120 °C"
>>> val("CNC(=S)NCC1CN(c2ccc(N3CCOCC3)c(F)c2)C(=O)O1 (configuration not stated)")
"158 to 160 °C"
>>> val("CCCSc1ncc(C(=O)N[C@@H](Cc2ccc(O)cc2)C(=O)OC)n1Cc1ccccc1Cl")
"180 to 182 °C"
>>> val("COc1cc(F)ccc1CCN1c2nc(-c3ccncc3)cc(=O)n2CCC1(C)C")
"217 to 219 °C"
>>> val("COc1ccc2c(c1)C(=NO)CCCO2")
"103 to 104 °C"
>>> val("CC(C)(C)Nc1cc(N2CCNCC2)nc(NC(C)(C)C)n1")
"142 to 145 °C"
>>> val("COc1ccc(-c2c(C#N)nn(-c3c(Cl)cc(C(F)(F)F)cc3Cl)c2N)cc1OC")
"250 °C"
>>> val("O=C1c2ccccc2C(=O)N1CC#Cc1ccc2c(c1)C(c1ccccc1F)=NCc1nnc(C(F)(F)F)n1-2")
"204 to 206 °C"
>>> val("CC(C)Cc1ccc(C(C)C(=O)Oc2ccc([N+](=O)[O-])cc2)cc1 (configuration not stated)")
"156 to 162 °C"
>>> val("C=C1C(=C)C2C(CCC3(C)C2CCC3(O)C(C)=O)C2(C)CCC(=O)C=C12 (configuration not stated)")
"274 to 276 °C"
>>> val("CCCCC(CC)COC(=O)CSc1cc2c(cc1SCC(=O)OCC(CC)CCCC)C(=O)c1cc3ccccc3cc1C2=O (configuration not stated)")
"75 to 80 °C"
>>> val("CCc1cn2nc(C)ccc2n1")
"53 to 55 °C"
>>> val("O=[N+]([O-])c1ccc(Cn2ccnn2)cc1")
"112 to 113 °C"
>>> val("Cn1c(-c2ccc([N+](=O)[O-])cc2)cnc1[C@H](Cc1ccccn1)N(C=O)c1cc2cc(F)ccc2o1")
"207 to 208 °C"
>>> val("CCOc1ccc(-c2nc(CCC(=O)c3ccccc3OC)cs2)cc1OCC")
"68.9 to 69.3 °C"

* * *

observationType: melting point

>>> val("Cn1cc(-c2ccc(Cl)c(Cl)c2)c(=O)c(-c2ccccc2Cl)c1")
"169 to 171 °C"
>>> val("CCCCCCCCC(O)C(=O)NCCSSCCNC(=O)C(O)CCCCCCCC (stereo not drawn)")
"180 to 183 °C"
>>> val("CC(C)(C)c1cc(-c2nn(CCC#N)c3ncccc23)cc(C(C)(C)C)c1O")
"158 to 160 °C"

* * *

# melting point listing for each entry below
observationType: melting point

>>> val("CC(C)(C)OC(=O)Nc1ccc(Cl)c(O)c1")
"103 to 106 °C"
>>> val("CCn1cc(C(=O)O)c(=O)c2cc(F)c(N3Cc4ccc(C(=O)OC)cc4C3)cc21")
"> 300 °C"
>>> val("Nc1c(NC(=O)CCl)ccc2c1C(=O)c1ccccc1C2=O")
"193 to 194 °C"
>>> val("CCC1CC(=O)N(Cc2cccc(NC(C)=O)c2)N=C1c1ccc(OC)c(OC)c1 (stereo unspecified)")
"142 °C"
>>> val("NC1=NS(=O)(=O)Nc2cccc(OCC3(NC(=O)c4ccncc4)CCCC3)c21")
"> 250 °C"
>>> val("Nc1cc2c(cc1N)OC(F)(Cl)C(F)(Cl)O2 (stereo unspecified)")
"130 to 131 °C"
>>> val("O=C1CCCN(C(=O)Cc2ccccc2)C(=O)CCc2cc(Cl)ccc21")
"178 to 180 °C"
>>> val("O=C(c1ccccc1)c1ccc(NC(=O)N2CCC3(CC2)OC(=O)c2ccccc23)cc1")
"161 to 163 °C"
>>> val("CC(C)(C)OC(=O)N1CCC(Oc2cccc3[nH]ccc23)C1 (stereo unspecified)")
"164 to 165 °C"
>>> val("CCOC(=O)C1=C(C)NC2=C(C(=O)N(CCN(CC)CC)C2)C1c1ccccc1[N+](=O)[O-] (stereo unspecified)")
"187 to 188 °C"
>>> val("O=C(O)/C=C(\\CC(O)CCCCCCc1ccc(Cl)cc1Cl)C(=O)O (stereo unspecified)")
"92 to 93 °C"
>>> val("CCOc1c(OC)ccc2nc3[nH]cnc(=O)c3cc12")
"348 to 349 °C"
>>> val("CCN(c1cccc(-c2ccnc3c([N+](=O)[O-])cnn23)c1)S(=O)(=O)c1ccccc1")
"189 to 191 °C"
>>> val("CNC1=Nc2sc(Cl)cc2C(c2ccccc2Cl)=NC1")
"259 to 262 °C"
>>> val("Cc1nc(CNC(=O)c2sc(-n3cnn(Cc4ccc(F)cc4)c3=O)cc2C)cs1")
"148 to 150 °C"
>>> val("COc1ccc(C(=O)Nc2cc(-c3c(-c4cccc(C)c4)nc4cccnn34)ccn2)cc1")
"177 to 178 °C"
>>> val("CSc1nnc2c(=O)[nH]c(-c3ccccc3OCC3CC3)nc2n1")
"235 to 236 °C"
>>> val("CN(C)c1c(C#N)c(C(F)(F)F)nn1-c1c(Cl)cc(C(F)(F)F)cc1Cl")
"105 to 107 °C"
>>> val("Nc1nc(Nc2ccccc2)c2ncn(C3CC(F)C(CO)O3)c2n1 (stereo unspecified)")
"193 to 194 °C"
>>> val("O=C1C(=O)N2CCOc3cc([N+](=O)[O-])cc1c32")
"230 to 232 °C"
>>> val("CCCCc1nc2c(N)nc3ccccc3c2n1CCCCNC(=O)Nc1cccc(NC(=O)NCCCCn2c(CCCC)nc3c(N)nc4ccccc4c32)c1")
"160 to 166 °C"
>>> val("O=C1NC(=O)C(=Cc2ccc(C(=O)CCc3ccccc3)nc2)S1")
"> 250 °C"
>>> val("CC(=O)C(=NO)c1ccc(F)cc1F")
"126 to 129 °C"
>>> val("O=C(O)C1CCCC1c1ccc2c(c1)OC[C@H](Cc1ccccc1)[C@H]2O (relative stereo)")
"129 to 130 °C"
>>> val("Nc1cc(-n2cc(C(=O)O)c(=O)c3cc(F)c(Cl)nc32)ccc1F")
"> 270 °C"
>>> val("COc1cc(C(O)CS(C)(=O)=O)cc(OC)c1N(C)C (stereo unspecified)")
"147 to 148 °C"
>>> val("Cn1ncc(C(=O)Nc2cc(Cl)ccc2Cl)c1N")
"190 to 191 °C"
>>> val("OCc1cccc(C=Cc2cccc(-c3ccsc3)c2)c1")
"79 to 81 °C"
>>> val("CC(=O)OCCOCn1cnc2c(=O)[nH]c(N)nc21")
"240 to 241 °C"
>>> val("CCOC(=O)c1ncn2c1[C@@H]1CCCN1C(=O)c1cc(F)ccc1-2")
"194 to 195 °C"
>>> val("OCCN1CCN(CC2CNCCO2)CC1 (stereo unspecified)")
"73 to 75.5 °C"
